src = patent US7604975B2

Would you kindly list % of control (LPXTGase activity) for each of these molecules?
- System: LPXTGase
- Format: biochemical, Streptococcus pyogenes
Give bare numbers, in %.

See these solved cases before continuing.
> print(dat)
                                   molecule  units.of.measure  quantitative.result
1  O=S(=O)([O-])[O-].[Na+].[Na+] [Sodium sulfate]                 %                   57
2      O=C(O)CN(CCN(CC(=O)O)CC(=O)O)CC(=O)O                 %                  5.2
3                 Cl.NO [Hydroxylamine-HCl]                 %                   27
4     [Ca+2].[Cl-].[Cl-] [Calcium chloride]                 %                   23
5   [Cl-].[Cl-].[Mg+2] [Magnesium chloride]                 %                   20

Now for the molecule whose % of control (LPXTGase activity) we want.
Given O=P(O)(O)O [Sodium phosphate] , state its recorded % of control (LPXTGase activity).
49
